Each entry below lists one item and its recorded pIC50 value.
- System: A2780 cells
- protocolDetails: In-vitro cell proliferation assay (SRB, 72 hours)
- Assay type: cell-based
- conditionLabel: Homo sapiens, sulforhodamine B (SRB) assay
pIC50: −log10 of the molar value.

| chemicalSmiles | pIC50 |
| --- | --- |
| O=C(NCCCCC1CCN(C(=O)c2cc3ccccc3[nH]2)CC1)c1ccc2nccn2c1 | 6.00 to 7.00 |
| COc1ccc(C(=O)N2CCC(CCCCNC(=O)c3cc4ccncc4s3)CC2)cc1F | 6.00 to 7.00 |
| O=C(NCCCCC1CCN(C(=O)c2ccc(Cl)cc2)CC1)c1ccc2nccn2c1 | 6.00 to 7.00 |
| O=C(NCCCCC1CCN(C(=O)c2ccc(OC(F)F)cc2)CC1)c1cc2ccncc2s1 | 6.00 to 7.00 |
| O=C(NCCCCC1CCN(C(=O)c2cc3cc(F)ccc3[nH]2)CC1)c1cc2ccncc2s1 | 5.00 to 6.00 |

###

- Tested on: A2780 cells
- protocolDetails: In-vitro cell proliferation assay (SRB, 72 hours)
- Assay type: cell-based
- conditionLabel: Homo sapiens, sulforhodamine B (SRB) assay
Each entry below lists one item and its recorded log10(IC50) value.
parameterMeasured: log10(IC50) (log10 of the value in nM)

| chemicalSmiles | parameterMeasured | observedValue |
| --- | --- | --- |
| COc1cccc(C(=O)N2CCC(CCCCNC(=O)c3cc4ccncc4s3)CC2)c1 | log10(IC50) | 1.04 |
| O=C(NCCCCC1CCN(C(=O)c2cc(F)ccc2F)CC1)c1ccc2nccn2c1 | log10(IC50) | 0.70 |
| O=C(NCCCCC1CCN(C(=O)c2ccccc2F)CC1)c1cc2ccncc2s1 | log10(IC50) | -0.22 |
| O=C(NCCCCC1CCN(C(=O)C2CCCCC2)CC1)c1ccc2nccn2c1 | log10(IC50) | -0.05 |
| O=C(NCCCC1CCN(C(=O)c2ccccc2)CC1)c1cc2cnccc2[nH]1 | log10(IC50) | 2.64 |
| Cc1ccc(F)cc1C(=O)N1CCC(CCCCNC(=O)c2cc3cnccc3[nH]2)CC1 | log10(IC50) | 0.36 |

###

- measuredOn: Recombinant His-tagged NAMPT (Homo sapiens, UniProt P43490)
- Construct: His; host or cells: E. coli
- Sequence (P43490 whole entry): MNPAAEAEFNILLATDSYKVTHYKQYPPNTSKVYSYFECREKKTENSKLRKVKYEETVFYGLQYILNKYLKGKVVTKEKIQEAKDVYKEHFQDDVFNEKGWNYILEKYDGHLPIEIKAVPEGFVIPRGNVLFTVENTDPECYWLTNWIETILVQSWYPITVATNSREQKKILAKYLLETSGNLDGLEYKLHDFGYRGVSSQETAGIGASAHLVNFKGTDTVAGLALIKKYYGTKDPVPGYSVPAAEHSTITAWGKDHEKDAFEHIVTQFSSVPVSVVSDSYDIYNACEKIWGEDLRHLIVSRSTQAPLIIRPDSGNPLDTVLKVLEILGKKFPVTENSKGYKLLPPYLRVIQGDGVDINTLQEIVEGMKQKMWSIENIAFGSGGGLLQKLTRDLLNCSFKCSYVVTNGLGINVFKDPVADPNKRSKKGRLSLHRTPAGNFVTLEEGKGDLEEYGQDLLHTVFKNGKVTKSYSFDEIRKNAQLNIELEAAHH
- protocolDetails: Biochemical inhibition assay: NAMPT enzymatic reaction, NMN quantified by mass spectrometry
- conditionLabel: 33 nM NAMPT, 1 μM NAM, 100 μM PRPP, 2.5 mM ATP, 30 minutes at room temperature; read-out: Biochem IC50
Each entry below lists one item and its recorded IC50 value.

| chemicalSmiles | IC50 [nM] |
| --- | --- |
| Cc1nc(CC(=O)N2CCC(CCCCNC(=O)c3cc4cnccc4[nH]3)CC2)cs1 | 49.4 |
| O=C(NCCCCC1CCN(C(=O)C2CCCCC2)CC1)c1ccc2nccn2c1 | 18.1 |
| Cc1nc(C(=O)N2CCC(CCCCNC(=O)c3cc4cnccc4[nH]3)CC2)cs1 | 69.5 |

###

- measuredOn: Recombinant His-tagged NAMPT (Homo sapiens, UniProt P43490)
- Construct: His; host or cells: E. coli
- protocolDetails: Biochemical inhibition assay: NAMPT enzymatic reaction, NMN quantified by mass spectrometry
- conditionLabel: 33 nM NAMPT, 1 μM NAM, 100 μM PRPP, 2.5 mM ATP, 30 minutes at room temperature; read-out: Biochem IC50
- Text: Biochemical Inhibition Assay NAMPT Protein Purification Recombinant His-tagged NAMPT was produced in E. coli cells, purified over a Ni column, and further purified over a size-exclusion column by XTAL Biostructures. The NAMPT Enzymatic Reaction […] A mass spectrometry-based assay was used to measure the Nampt reaction product (NMN) and the internal control (L-Cystathionine). NMN and L-Cystathionine were detected using the services of Biocius Lifesciences with the RapidFire system. […]
Grouping key: IC50. Bins: Low: < 30 nM; Medium: ≥ 30 nM and < 70 nM; High: ≥ 70 nM

| chemicalSmiles | categoryLabel |
| --- | --- |
| O=C(NCCCCC1CCN(C(=O)c2ccc3[nH]ccc3c2)CC1)c1cc2ccncc2s1 | Medium |
| O=C(NCCCCC1CCN(C(=O)c2cc(Cl)cc(Cl)c2)CC1)c1cc2cnccc2[nH]1 | High |
| O=C(NCCCCC1CCN(C(=O)c2cc3ccccc3[nH]2)CC1)c1cc2cnccc2[nH]1 | High |
| O=C(NCc1ccc(S(=O)(=O)c2ccc(C(=O)N3CCCC3)cc2)cc1)c1cc2ccncc2s1 | Low |
| O=C(NCCCCC1CCN(C(=O)c2ccc(-n3cccn3)cc2)CC1)c1cc2cnccc2[nH]1 | Medium |
| CC(C)c1ncoc1C(=O)N1CCC(CCCCNC(=O)c2cc3ccncc3s2)CC1 | Low |
| O=C(NCCCCC1CCN(C(=O)c2cccnc2)CC1)c1cc2cnccc2[nH]1 | High |
| O=C(NCCCCC1CCN(C(=O)c2cc3cc(F)ccc3[nH]2)CC1)c1cc2cnccc2[nH]1 | High |
| CCOc1ncccc1C(=O)N1CCC(CCCCNC(=O)c2ccc3nccn3c2)CC1 | Low |
| CC(C)c1ccc(C(=O)N2CCC(CCCCNC(=O)c3cc4cnccc4[nH]3)CC2)nc1 | High |
| O=C(NCCCCC1CCN(C(=O)c2cc3cnccc3[nH]2)CC1)c1cc2cnccc2[nH]1 | Low |
| Cn1c(C(=O)N2CCC(CCCCNC(=O)c3cc4cnccc4[nH]3)CC2)cc2ccccc21 | High |
| Cc1ncsc1C(=O)N1CCC(CCCCNC(=O)c2ccc3nccn3c2)CC1 | Low |
| Cn1ccc(S(=O)(=O)N2CCC(CCCCNC(=O)c3cc4cnccc4[nH]3)CC2)n1 | Medium |
| O=C(NCCCCC1CCN(S(=O)(=O)c2cccc(Cl)c2)CC1)c1cc2cnccc2[nH]1 | Medium |
| COc1cccc(OC)c1C(=O)N1CCC(CCCCNC(=O)c2ccc3nccn3c2)CC1 | Low |
| COc1ccc(C(=O)N2CCC(CCCCNC(=O)c3ccc4nccn4c3)CC2)c(OC)c1 | Low |
| O=C(NCCCCC1CCN(C(=O)c2ccc(C(F)(F)F)cn2)CC1)c1ccc2nccn2c1 | High |
| O=C(NCCCCC1CCN(C(=O)c2cccc(Cl)c2)CC1)c1ccc2nccn2c1 | Low |

###

Each entry below lists one item and its recorded log10 IC50 value.
- System: A2780 cells
- protocolDetails: In-vitro cell proliferation assay (SRB, 72 hours)
- Assay type: cell-based
- conditionLabel: Homo sapiens, sulforhodamine B (SRB) assay
parameterMeasured: log10 IC50 (log10 of the value in nM)

| chemicalSmiles | log10 IC50 |
| --- | --- |
| COc1cc(Cl)ccc1C(=O)N1CCC(CCCCNC(=O)c2cc3ccncc3s2)CC1 | 1.11 |
| O=C(NCCCCC1CCN(C(=O)c2cnccc2C(F)(F)F)CC1)c1cc2cnccc2[nH]1 | 0.46 |
| Cc1ncsc1C(=O)N1CCC(CCCCNC(=O)c2cc3ccncc3s2)CC1 | -0.10 |
| O=C(NCCCCC1CCN(S(=O)(=O)c2ccc(F)c(F)c2)CC1)c1cc2cnccc2[nH]1 | 1.36 |
| O=C(NCCCCC1CCN(C(=O)c2ccc(F)c(F)c2)CC1)c1cc2cnccc2[nH]1 | 1.31 |

###

Each entry below lists one item and its recorded IC50 value.
- measuredOn: Recombinant His-tagged NAMPT (Homo sapiens, UniProt P43490)
- Construct: His; host or cells: E. coli
- protocolDetails: Biochemical inhibition assay: NAMPT enzymatic reaction, NMN quantified by mass spectrometry
- conditionLabel: 33 nM NAMPT, 1 μM NAM, 100 μM PRPP, 2.5 mM ATP, 30 minutes at room temperature; read-out: Biochem IC50
parameterMeasured: IC50 (nM)

| chemicalSmiles | measuredOn | resultUnit | observedValue |
| --- | --- | --- | --- |
| O=C(NCCCCC1CCN(C(=O)c2cc3cc(F)ccc3[nH]2)CC1)c1ccc2nccn2c1 | Recombinant His-tagged NAMPT (Homo sapiens, UniProt P43490) | nM | 71.3 |
| O=C(NCCCCC1CCN(C(=O)c2ccc(N3CCOCC3)nc2)CC1)c1cc2ccncc2s1 | Recombinant His-tagged NAMPT (Homo sapiens, UniProt P43490) | nM | 30.1 |
| Cc1cnc(C(=O)N2CCC(CCCCNC(=O)c3cc4ccncc4s3)CC2)cn1 | Recombinant His-tagged NAMPT (Homo sapiens, UniProt P43490) | nM | 68.5 |
| COc1ncc(Cl)cc1C(=O)N1CCC(CCCCNC(=O)c2cc3cnccc3[nH]2)CC1 | Recombinant His-tagged NAMPT (Homo sapiens, UniProt P43490) | nM | 30.3 |
| CC(C)c1ncoc1C(=O)N1CCC(CCCCNC(=O)c2cc3cnccc3[nH]2)CC1 | Recombinant His-tagged NAMPT (Homo sapiens, UniProt P43490) | nM | 30.4 |
